MEASURED TARGET: GST-mouse CK1δTV2 (Mus musculus)
Construct: made in house; host or cells: bacteria (pGEX-2T)
Sequence (Q9DC28 1-409 isoform Q9DC28-2): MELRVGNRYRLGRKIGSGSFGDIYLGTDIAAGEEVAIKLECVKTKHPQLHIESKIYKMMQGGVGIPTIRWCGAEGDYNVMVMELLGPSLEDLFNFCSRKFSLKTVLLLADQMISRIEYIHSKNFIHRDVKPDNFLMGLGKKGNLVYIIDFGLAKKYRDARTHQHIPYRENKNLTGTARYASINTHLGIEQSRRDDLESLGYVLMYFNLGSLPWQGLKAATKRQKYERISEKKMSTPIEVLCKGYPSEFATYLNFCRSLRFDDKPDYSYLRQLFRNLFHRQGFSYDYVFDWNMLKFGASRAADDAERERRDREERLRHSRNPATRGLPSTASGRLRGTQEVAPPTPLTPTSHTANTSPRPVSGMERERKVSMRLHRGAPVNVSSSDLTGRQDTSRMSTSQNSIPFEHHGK
METHOD: In vitro kinase assay, GST-mouse CK1δTV2
Type: biochemical
REPORTED CONDITIONS: 0.01 mM ATP, substrate GST-mouse p53^1-64; mean ± SD; read-out: IC50 (μM) GST-CK1δ TV2
TEST READOUT: IC50 (µM)
A number alone suffices; assume µM.

// query Hello, please tell me recorded IC50 for this one: `O=C(Nc1nc(C(=O)Nc2nc3ccc(C(F)(F)F)cc3[nH]2)cs1)c1ccncc1`
// result 0.505

// query Hello, please tell me recorded IC50 for this one: `O=C(Nc1nc2cc(Cl)c(F)cc2[nH]1)c1csc(NC(=O)c2ccccc2OC(F)(F)F)n1`
// result 0.055

// query Hello, please tell me recorded IC50 for this one: `O=C(Nc1nc2ccc(C(F)(F)F)cc2[nH]1)c1csc(NC(=O)c2ccccc2OC(F)(F)F)n1`
// result 0.042

----------
MEASURED TARGET: CK1δkd (Rattus norvegicus, UniProt Q06486)
Construct: Recombinant CK1δ kinase domain (CK1δkd, NEB, Frankfurt am Main, Germany); purchased NEB, Frankfurt am Main, Germany
Sequence (Q06486 9-277 limits assumed): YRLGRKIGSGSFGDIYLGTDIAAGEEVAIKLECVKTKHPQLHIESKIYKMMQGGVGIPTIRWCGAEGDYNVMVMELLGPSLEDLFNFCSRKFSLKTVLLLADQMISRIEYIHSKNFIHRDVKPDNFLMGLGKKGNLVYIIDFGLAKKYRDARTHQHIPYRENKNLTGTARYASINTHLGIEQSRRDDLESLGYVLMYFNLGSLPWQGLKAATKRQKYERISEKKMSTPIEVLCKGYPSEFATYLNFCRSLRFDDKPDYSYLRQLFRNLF
METHOD: In vitro kinase assay, CK1δ kinase domain
Type: biochemical
REPORTED CONDITIONS: 0.01 mM ATP, substrate GST-mouse p53^1-64; mean ± SD
TEST READOUT: IC50 (µM)
A number alone suffices; assume µM.

// query Hello, please tell me recorded IC50 for this one: O=C(Nc1nc(C(=O)Nc2nc3ccc(C(F)(F)F)cc3[nH]2)cs1)c1ccncc1 [Compound 4]
// result 0.409

// query Hello, please tell me recorded IC50 for this one: COC(=O)c1ccc2[nH]c(NC(=O)c3csc(NC(=O)c4ccccc4OC(F)(F)F)n3)nc2c1 [Compound 1]
// result 0.865

// query Hello, please tell me recorded IC50 for this one: CS(=O)(=O)c1ccc2[nH]c(NC(=O)c3csc(NC(=O)c4ccccc4OC(F)(F)F)n3)nc2c1 [Compound 2]
// result 1.23
